# credit: the supplement of paper PMC10126150

For each entry below, report its switch fluorescence ratio value.
tested on: ATP; experiment: switch fluorescence ratio, 500 uM ATP over buffer (Cy3 cluster intensity, sum of 5 cycles each) (fold (ratio)); higher = stronger signal-on switching upon ATP binding; sequences stand for … in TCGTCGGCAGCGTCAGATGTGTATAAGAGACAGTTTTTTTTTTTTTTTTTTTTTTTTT…TC; conditions: aptamer strand: ATP DNA aptamer (quencher-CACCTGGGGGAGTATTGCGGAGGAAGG + anchor), 100 nM annealed; ATP concentration: 500 uM;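 further: ATP exposure 15 min at 22 °C before imaging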
One number for each entry.

TTGTATTT
0.979
GGGGCGGCTA
0.984
TTTTCTATTT
0.998
ACACTTGCCA
1.09
GGGAAATTGC
1.04
GAAGTTTTTT
1

**Q:** So what switch fluorescence ratio did TTTACTTACG get with ATP?
**A:** 1.22

====

Would you kindly list switch fluorescence ratio for each of these sequences?
test system: ATP; assay: switch fluorescence ratio, 500 uM ATP over buffer (Cy3 cluster intensity, sum of 5 cycles each) (fold (ratio)); higher = stronger signal-on switching upon ATP binding; sequences stand for … in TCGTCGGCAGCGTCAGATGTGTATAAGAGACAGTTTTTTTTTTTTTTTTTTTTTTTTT…TC; settings: aptamer strand: ATP DNA aptamer (quencher-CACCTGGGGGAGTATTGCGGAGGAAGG + anchor), 100 nM annealed; ATP concentration: 500 uM;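 further: ATP exposure 15 min at 22 °C before imaging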

# example entries with known answers
TTTCAAGATT
0.998
AAGGGGGGTC
0.991

Next sequence, switch fluorescence ratio to be filled in.
**Q:** Recorded switch fluorescence ratio for GATGTGGTGG with ATP, please?
**A:** 0.99

====

system: ATP; experiment: switch fluorescence ratio, 500 uM ATP over buffer (Cy3 cluster intensity, sum of 5 cycles each) (fold (ratio)); higher = stronger signal-on switching upon ATP binding; sequences stand for … in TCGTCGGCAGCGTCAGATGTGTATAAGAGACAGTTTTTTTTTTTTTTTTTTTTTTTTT…TC; details: aptamer strand: ATP DNA aptamer (quencher-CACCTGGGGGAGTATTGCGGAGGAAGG + anchor), 100 nM annealed; ATP concentration: 500 uM;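 further: ATP exposure 15 min at 22 °C before imaging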
Assay readout: switch fluorescence ratio
One number for each entry.

Worked examples, 8 sequences total:
GGGCGCCATA
0.948
TCCGGTTTCG
1.02
AAGGTATGTG
1.02
TTCTGTATTG
1.03
TAATATTCAA
1.03
GCTAGCGTTC
1
TCGTGTGACC
1.01
TTGTTCCTTT
0.985

For each of the items listed, what is its switch fluorescence ratio?
1. ATAGAGGATA
2. TTGAGATTTT

**A:**
1: 0.986; 2: 0.996

====

tested on: ATP; test: switch fluorescence ratio, 500 uM ATP over buffer (Cy3 cluster intensity, sum of 5 cycles each) (fold (ratio)); higher = stronger signal-on switching upon ATP binding; sequences stand for … in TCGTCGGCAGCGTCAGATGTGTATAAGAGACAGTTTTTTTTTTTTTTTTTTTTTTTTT…TC; conditions: aptamer strand: ATP DNA aptamer (quencher-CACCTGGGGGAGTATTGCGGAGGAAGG + anchor), 100 nM annealed; ATP concentration: 500 uM;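 further: ATP exposure 15 min at 22 °C before imaging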
Classification field: enter Condition met for switch fluorescence ratio values not below 1, Condition not met for values below it.

Worked examples, 4 sequences total:
ATGGACAGGC
Condition not met
CTTACAAGC
Condition met
CAGTGGGGAC
Condition met
GTTGGAGCTA
Condition met

Switching to the query record.
**Q:** Could you tell me if the measured switch fluorescence ratio of CTAAAGAGCA reaches 1 or more?
**A:** Condition met

====

system: ATP; test: switch fluorescence ratio, 500 uM ATP over buffer (Cy3 cluster intensity, sum of 5 cycles each) (fold (ratio)); higher = stronger signal-on switching upon ATP binding; sequences stand for … in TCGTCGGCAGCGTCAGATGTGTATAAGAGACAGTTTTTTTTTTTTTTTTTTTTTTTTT…TC; settings: aptamer strand: ATP DNA aptamer (quencher-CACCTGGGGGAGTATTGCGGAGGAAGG + anchor), 100 nM annealed; ATP concentration: 500 uM;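 further: ATP exposure 15 min at 22 °C before imaging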
Assay readout: switch fluorescence ratio
Give bare numbers.

Examples with answers:
GCCGGGGACG
1.01
AAAACGGTTG
1

Okay, here is my list. What is switch fluorescence ratio for each of these?
1. ACCTACAAGG
2. CGGTTAGACT
3. CGGATGAGGT
4. GATTAAAAAT
5. AATATTGGAT

**A:**
0.994
0.975
0.987
1.01
1.01

====

Provide the reported switch fluorescence ratio of each item.
tested on: ATP; assay: switch fluorescence ratio, 500 uM ATP over buffer (Cy3 cluster intensity, sum of 5 cycles each) (fold (ratio)); higher = stronger signal-on switching upon ATP binding; sequences stand for … in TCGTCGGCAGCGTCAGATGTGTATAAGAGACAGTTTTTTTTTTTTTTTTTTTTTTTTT…TC; conditions: aptamer strand: ATP DNA aptamer (quencher-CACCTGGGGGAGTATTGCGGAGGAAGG + anchor), 100 nM annealed; ATP concentration: 500 uM;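 further: ATP exposure 15 min at 22 °C before imaging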

Before answering, review these 5 worked examples.
GGTACGGGCC
1.01
AGGGGCGACT
0.984
TTGTTTTGCT
0.999
GCGCCCATGA
0.982
AACTTGTTTT
1.02

Batch: switch fluorescence ratio for all items listed.
1. CCGTTTTGCG
2. TGAATTATAG
3. TGGGAATGTT
4. TTTAAGTGTC
5. CGTTACGCTG
6. ACGTTGTACA
7. CAGGCAGTTT

**A:**
[1.02, 1, 1.01, 1.09, 0.979, 1.06, 1.01]

====

system: ATP; assay: switch fluorescence ratio, 500 uM ATP over buffer (Cy3 cluster intensity, sum of 5 cycles each) (fold (ratio)); higher = stronger signal-on switching upon ATP binding; sequences stand for … in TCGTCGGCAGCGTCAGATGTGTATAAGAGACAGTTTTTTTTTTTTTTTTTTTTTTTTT…TC; conditions: aptamer strand: ATP DNA aptamer (quencher-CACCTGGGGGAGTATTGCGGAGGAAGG + anchor), 100 nM annealed; ATP concentration: 500 uM;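 further: ATP exposure 15 min at 22 °C before imaging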
switch fluorescence ratio of 1 or higher: Satisfied. Under 1: Not satisfied.

Take a look at these entries with their results.
AGGGGAGGTA
Not satisfied
TCTCCGAGTG
Satisfied
ACCGGTCTAT
Satisfied

**Q:** Quick check: does TTCTCGATCT have switch fluorescence ratio greater than or equal to 1?
**A:** Satisfied

====

Can you tell me switch fluorescence ratio for the items I'm about to list?
tested on: ATP; experiment: switch fluorescence ratio, 500 uM ATP over buffer (Cy3 cluster intensity, sum of 5 cycles each) (fold (ratio)); higher = stronger signal-on switching upon ATP binding; sequences stand for … in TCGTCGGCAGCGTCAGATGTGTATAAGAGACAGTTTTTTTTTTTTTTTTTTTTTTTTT…TC; settings: aptamer strand: ATP DNA aptamer (quencher-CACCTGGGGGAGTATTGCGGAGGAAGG + anchor), 100 nM annealed; ATP concentration: 500 uM;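 further: ATP exposure 15 min at 22 °C before imaging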
Give bare numbers.

Study these solved cases before continuing.
AAGCTGACAG
1.01
TTAAGTCCA
0.995
ACAGATGGGG
1.01
GTGGGGATTA
1

Field: switch fluorescence ratio. Fill in for each record below.
1. CTAAAAACTA
2. TAGCGGGTTC
3. GACTATCGGA

**A:**
1: 0.978; 2: 1.05; 3: 1.03

====

tested on: ATP; experiment: switch fluorescence ratio, 500 uM ATP over buffer (Cy3 cluster intensity, sum of 5 cycles each) (fold (ratio)); higher = stronger signal-on switching upon ATP binding; sequences stand for … in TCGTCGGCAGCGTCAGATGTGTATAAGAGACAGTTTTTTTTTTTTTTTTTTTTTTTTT…TC; details: aptamer strand: ATP DNA aptamer (quencher-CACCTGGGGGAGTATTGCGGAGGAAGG + anchor), 100 nM annealed; ATP concentration: 500 uM;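 further: ATP exposure 15 min at 22 °C before imaging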
Exercise: for every item that follows, state its recorded switch fluorescence ratio.
Answers are plain numbers.

Known results for sequences:
CATAGGTTAT
0.993
GAAAGGGTCC
1
GCATATTGGG
0.987
TTCATTTCTG
1.02
AGCAAAACGT
1.17

// for each sequence in input: emit switch fluorescence ratio
1. CTGGGTTGTA
2. TCTGTAGGTG
3. AACATCTAGC
4. TTTTTGCAGT
5. TTGTATGAAG
6. GGAGATTGAA

**A:**
1
1.07
0.994
1.02
0.951
0.992

For every listed record, write down its switch fluorescence ratio.
1. CTCCAGGGGA
2. CGAGGCACAG
3. TCGTTGGGTG

**A:**
[1.5, 1.53, 0.994]

====

system: ATP; assay: switch fluorescence ratio, 500 uM ATP over buffer (Cy3 cluster intensity, sum of 5 cycles each) (fold (ratio)); higher = stronger signal-on switching upon ATP binding; sequences stand for … in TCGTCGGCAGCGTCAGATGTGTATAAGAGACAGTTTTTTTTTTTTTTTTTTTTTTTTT…TC; details: aptamer strand: ATP DNA aptamer (quencher-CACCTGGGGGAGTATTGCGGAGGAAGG + anchor), 100 nM annealed; ATP concentration: 500 uM;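 further: ATP exposure 15 min at 22 °C before imaging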
Assay readout: switch fluorescence ratio
One number for each entry.

TGTGGGGGTC
0.965
TGATAAGGAG
1.01
GCAAAATCTG
1.04
TGACTGGGAA
1.06
CCATACGTCA
1.25

Return reported switch fluorescence ratio values for all items listed beneath this line.
1. ACTTAATGGG
2. ACGAAAGTCT

**A:**
1. 1.03
2. 1.03

Please go through the list and note switch fluorescence ratio for each sequence.
1. GGATGGTGAG
2. AAGAGATGTG
3. TTGCATGTTT

**A:**
1. 0.972
2. 0.985
3. 1.15

Return reported switch fluorescence ratio values for all items listed beneath this line.
1. ATATCAAGGA
2. CCGGCTTGCT

**A:**
[1, 1.03]

Dear colleague, could you please provide switch fluorescence ratio for the sequences listed below?
1. TTTTGATGAG
2. AGGCAGGCGG
3. GAGGGAGATG
4. TTGAATTAAG
5. TAATATCATT
6. GCAGTGTACG
7. CATTTCAACC
8. ATGCTATCGT

**A:**
1: 0.987; 2: 1.01; 3: 1.03; 4: 0.982; 5: 1; 6: 0.997; 7: 1.02; 8: 1.02
